- Measurement notes: Metabolic stability in pooled liver microsomes
- Assay type: in vitro ADME, human
- Test settings: human liver microsomes, 1 μM test compound, 37° C.
Would you kindly list Half-life - t½ for each of these compounds?
Answer with a number only, understood to be in h.

The compound listed as Cc1nc2ccc(C3CC3)nc2n2c(-c3cc(OC4COCC4O)ccc3Cl)nnc12 (racemic) [Example 58a] shows Half-life - t½ equal to 2.17

The compound listed as `Cc1nc2cccnc2n2c(-c3cc(OCC(C)(C)O)ccc3Cl)nnc12` shows Half-life - t½ equal to 2.17

The compound listed as Cc1nc2ccc(C3CC3)nc2n2c(-c3cc(OC4COCC4O)ccc3Cl)nnc12 (single isomer, unassigned) [Example 58b] shows Half-life - t½ equal to 2.17

The compound listed as `Cc1nc2cccnc2n2c(-c3cc(OC[C@H](C)O)ccc3Cl)nnc12` shows Half-life - t½ equal to 2.17

The compound listed as Cc1ccc(OC2COCC2O)cc1-c1nnc2c(C)nc3ccc(C4CC4)nc3n12 (racemic) [Example 57] shows Half-life - t½ equal to 2.17

The compound listed as `Cc1ccc(OCC(C)(C)O)cc1-c1nnc2c(C)nc3ccc(C4CC4)nc3n12` shows Half-life - t½ equal to 2.17

The compound listed as `Cc1nc2cccnc2n2c(-c3cc(OC4CCOCC4)ccc3Cl)nnc12` shows Half-life - t½ equal to 2.17

The compound listed as `Cc1ccc2nc(C)c3nnc(-c4cc(O[C@H]5CCOC5)ccc4Cl)n3c2n1` shows Half-life - t½ equal to 2.17

====

- System name: UniProt Q12809
- Sequence (Q12809 whole entry): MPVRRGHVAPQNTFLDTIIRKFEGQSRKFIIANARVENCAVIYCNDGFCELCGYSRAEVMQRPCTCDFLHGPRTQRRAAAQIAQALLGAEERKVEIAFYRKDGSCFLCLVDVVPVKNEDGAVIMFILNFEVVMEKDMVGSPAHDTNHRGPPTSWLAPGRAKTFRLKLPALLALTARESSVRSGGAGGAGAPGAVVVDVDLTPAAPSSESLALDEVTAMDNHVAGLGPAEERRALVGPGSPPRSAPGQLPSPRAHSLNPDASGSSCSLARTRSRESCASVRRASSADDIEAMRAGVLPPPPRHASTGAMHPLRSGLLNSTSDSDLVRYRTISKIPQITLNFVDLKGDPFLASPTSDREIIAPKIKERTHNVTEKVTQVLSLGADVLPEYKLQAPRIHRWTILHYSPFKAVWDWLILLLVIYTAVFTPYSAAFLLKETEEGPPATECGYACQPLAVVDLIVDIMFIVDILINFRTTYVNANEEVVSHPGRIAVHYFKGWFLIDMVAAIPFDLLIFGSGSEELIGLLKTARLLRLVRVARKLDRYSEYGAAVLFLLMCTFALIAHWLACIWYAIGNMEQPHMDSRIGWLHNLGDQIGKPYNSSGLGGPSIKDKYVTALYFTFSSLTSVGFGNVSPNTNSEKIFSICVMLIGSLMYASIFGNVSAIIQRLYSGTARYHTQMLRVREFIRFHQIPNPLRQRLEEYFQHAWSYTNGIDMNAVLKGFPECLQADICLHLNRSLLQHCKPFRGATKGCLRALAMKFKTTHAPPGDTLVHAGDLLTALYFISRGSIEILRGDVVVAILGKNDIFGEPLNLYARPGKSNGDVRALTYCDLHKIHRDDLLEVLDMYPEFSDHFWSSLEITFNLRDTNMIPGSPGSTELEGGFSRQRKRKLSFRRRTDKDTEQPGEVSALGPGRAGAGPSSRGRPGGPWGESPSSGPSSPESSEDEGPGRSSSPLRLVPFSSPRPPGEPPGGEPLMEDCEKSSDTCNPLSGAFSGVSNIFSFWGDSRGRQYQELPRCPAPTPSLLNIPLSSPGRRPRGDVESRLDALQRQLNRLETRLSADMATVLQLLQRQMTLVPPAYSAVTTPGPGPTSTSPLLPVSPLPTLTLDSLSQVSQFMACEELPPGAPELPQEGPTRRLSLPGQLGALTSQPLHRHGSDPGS
- Measurement notes: hERG-channel assay (whole-cell patch clamp, transfected HEK293 cells)
- Test settings: HEK293 cells stably transfected with hERG cDNA, 35° C.
pIC50: −log10 of the molar value.
Reported property: pIC50

The compound listed as Cc1nc2ccc(C3CC3)nc2n2c(-c3cc(OC[C@H](C)O)ccc3Cl)nnc12 [Example 35a] shows pIC50 equal to < 5.00

====

- Measurement notes: Metabolic stability in pooled liver microsomes
- Assay type: in vitro ADME, human
- Test settings: human liver microsomes, 1 μM test compound, 37° C.
- Experimental: The metabolic stability of the compounds according to the invention has been investigated as follows: The metabolic degradation of the test compound was assayed at 37° C. with pooled liver microsomes from various species. […] The half-life was determined by the slope of the semi-logarithmic plot of the concentration-time profile.
Reported property: Half-life - t½ (h)
Answer with a number only, understood to be in h.

The compound listed as `Cc1nc2cc(C(C)C)cnc2n2c(-c3cc(OCC(C)(C)O)ccc3Cl)nnc12` shows Half-life - t½ equal to 2.17

The compound listed as `Cc1nc2ccc(C3(C)CC3)nc2n2c(-c3cc(C(C)(C)O)ccc3F)nnc12` shows Half-life - t½ equal to 2.17

The compound listed as `Cc1nc2ccc(C3CC3)nc2n2c(-c3cc(C(C)(C)O)ccc3Cl)nnc12` shows Half-life - t½ equal to 2.17

The compound listed as `Cc1nc2ccc(C3CC3)nc2n2c(-c3cc(OCC(C)(C)O)ccc3F)nnc12` shows Half-life - t½ equal to 2.17

The compound listed as Cc1nc2cccnc2n2c(-c3cc(OC4COCCC4O)ccc3Cl)nnc12 (single isomer, unassigned) shows Half-life - t½ equal to 2.17

The compound listed as `Cc1ccc(OCC2(O)CCC2)cc1-c1nnc2c(C)nc3cccnc3n12` shows Half-life - t½ equal to 2.17

The compound listed as `Cc1nc2cccnc2n2c(-c3cc(C4(O)CCOCC4)ccc3Cl)nnc12` shows Half-life - t½ equal to 2.17

The compound listed as `Cc1ccc(C(C)(C)O)cc1-c1nnc2c(C)nc3ccc(C4CC4)nc3n12` shows Half-life - t½ equal to 2.17

The compound listed as `Cc1nc2cccnc2n2c(-c3cc(C4(O)CCC4)ccc3Cl)nnc12` shows Half-life - t½ equal to 2.17

The compound listed as `Cc1nc2cccnc2n2c(-c3cc(CC(C)(C)O)ccc3Cl)nnc12` shows Half-life - t½ equal to 2.17

The compound listed as `Cc1ccc2nc(C)c3nnc(-c4cc(OC[C@H](C)O)ccc4Cl)n3c2n1` shows Half-life - t½ equal to 2.17

The compound listed as Cc1ccc2nc(C)c3nnc(-c4cc(C(O)C(C)C)ccc4Cl)n3c2n1 (stereo not drawn) shows Half-life - t½ equal to 0.817

The compound listed as `Cc1ccc2nc(C)c3nnc(-c4cc(C(C)(C)O)ccc4Cl)n3c2n1` shows Half-life - t½ equal to 2.17

The compound listed as Cc1ccc2nc(C)c3nnc(-c4cc(C(C)O)ccc4Cl)n3c2n1 (stereo not drawn) shows Half-life - t½ equal to 2.17

The compound listed as Cc1ccc(C2(O)CCOCC2O)cc1-c1nnc2c(C)nc3ccc(C4CC4)nc3n12 (racemic) [Example 104] shows Half-life - t½ equal to 2.17

The compound listed as `Cc1nc2cccnc2n2c(-c3cc(CCC(C)(C)O)ccc3Cl)nnc12` shows Half-life - t½ equal to 2.17

The compound listed as `Cc1ccc(OCC(C)(C)O)cc1-c1nnc2c(C)nc3ccc(C(C)C)nc3n12` shows Half-life - t½ equal to 2.17

The compound listed as `Cc1ccc2nc(C)c3nnc(-c4cc(OCC(C)(C)O)ccc4Cl)n3c2n1` shows Half-life - t½ equal to 2.17

====

- Measurement notes: Metabolic stability in pooled liver microsomes
- Type: in vitro ADME, human
- Test settings: human, pooled liver microsomes, pH 7.6, human liver microsomes, 1 μM test compound, 37° C.; read-out: Half-life - t½
Labelling: half-life at 1 μM reported below 80 min becomes Met; at or above becomes Not met.

*Q* Answer whether the compound Cc1nc2ccc(C3CC3)nc2n2c(-c3cc(OC4CCOCC4)ccc3Cl)nnc12 [Example 32a] has half-life at 1 μM strictly less than 80 min
*A* Met

*Q* Answer whether the compound `Cc1nc2ccc(C(C)C)nc2n2c(-c3cc(C(C)(C)O)ccc3Cl)nnc12` has half-life at 1 μM strictly less than 80 min
*A* Not met

*Q* Answer whether the compound `Cc1nc2ccc(C(C)C)nc2n2c(-c3cc(C4(O)CCC4)ccc3Cl)nnc12` has half-life at 1 μM strictly less than 80 min
*A* Met

*Q* Answer whether the compound `Cc1nc2ccc(C3CC3)nc2n2c(-c3cc(O)ccc3F)nnc12` has half-life at 1 μM strictly less than 80 min
*A* Met

*Q* Answer whether the compound `Cc1nc2ccc(C3CC3)nc2n2c(-c3cc(C4(O)CCOCC4)ccc3Cl)nnc12` has half-life at 1 μM strictly less than 80 min
*A* Met

*Q* Answer whether the compound `Cc1ccc(O)cc1-c1nnc2c(C)nc3ccc(C4CC4)nc3n12` has half-life at 1 μM strictly less than 80 min
*A* Met

*Q* Answer whether the compound `Cc1ccc(CCC(C)(C)O)cc1-c1nnc2c(C)nc3ccc(C4CC4)nc3n12` has half-life at 1 μM strictly less than 80 min
*A* Met

*Q* Answer whether the compound `Cc1nc2ccc(C3CC3)nc2n2c(-c3cc(C(C)(C)CO)ccc3F)nnc12` has half-life at 1 μM strictly less than 80 min
*A* Met

*Q* Answer whether the compound `Cc1nc2ccc(C3CC3)nc2n2c(-c3cc(C4(O)CCC4)ccc3F)nnc12` has half-life at 1 μM strictly less than 80 min
*A* Met

*Q* Answer whether the compound `Cc1nc2ccc(C3CC3)nc2n2c(-c3cc(CC(C)(C)O)ccc3Cl)nnc12` has half-life at 1 μM strictly less than 80 min
*A* Not met

*Q* Answer whether the compound `Cc1nc2ccc(C3CC3)nc2n2c(-c3cc(CCC(C)(C)O)ccc3Cl)nnc12` has half-life at 1 μM strictly less than 80 min
*A* Met

*Q* Answer whether the compound `Cc1nc2ccc(C3CC3)nc2n2c(-c3cc(CCC(C)(C)O)ccc3F)nnc12` has half-life at 1 μM strictly less than 80 min
*A* Met

*Q* Answer whether the compound Cc1nc2ccc(C3CC3)nc2n2c(-c3cc(OC4COCC4O)ccc3Cl)nnc12 (single isomer, unassigned) [Example 56a] has half-life at 1 μM strictly less than 80 min
*A* Not met

*Q* Answer whether the compound `Cc1nc2ccc(C(F)(F)F)nc2n2c(-c3cc(C4(O)CCOCC4)ccc3Cl)nnc12` has half-life at 1 μM strictly less than 80 min
*A* Not met

*Q* Answer whether the compound Cc1nc2ccc(C3CC3)nc2n2c(-c3cc(OC4COCC4O)ccc3Cl)nnc12 (racemic) [Example 56] has half-life at 1 μM strictly less than 80 min
*A* Not met

*Q* Answer whether the compound `Cc1nc2ccc(C3CC3)nc2n2c(-c3cc(C4(O)CCC4)ccc3Cl)nnc12` has half-life at 1 μM strictly less than 80 min
*A* Met

*Q* Answer whether the compound `Cc1nc2ccc(C3CC3)nc2n2c(-c3cc(CC(C)(C)O)ccc3F)nnc12` has half-life at 1 μM strictly less than 80 min
*A* Not met
